Read-out: flavin-containing dimethylaniline monooxygenases 3 (FMO3), FMO3 (gene 2328)
Assay: LTEA_HepaRG_FMO3: Life Technologies and Expression Analysis (LTEA) Assay for flavin-containing dimethylaniline monooxygenases 3 (FMO3) using HepaRG (AID 2283453)
Conditions: mRNA level, 48 h; actives raise or lower the signal
The source made the active and inactive calls. Rule for the calls: active = hit-call score of the fitted dose curve at least 0.9, where 1 is the maximum; inactive = score below 0.9.
Classes used: 1.0 for active, 0.0 for inactive

* CC[C@@H]1C[C@H](N(Cc2cc(C(F)(F)F)cc(C(F)(F)F)c2)C(C)=O)c2cc(C(F)(F)F)ccc2N1C(=O)OC(C)C | 0.0
* Cc1ccc2oc(CN(Cc3ccccc3)C(=O)Nc3c(F)cc(F)cc3F)c(-c3ccc(Cl)cc3)c2c1 | 1.0
* OC12N=C(c3ccccc3)SC1Cc1cc(Cl)ccc12 (stereo not drawn) | 1.0
* CC/C(=C(/CC)c1ccc(O)cc1)c1ccc(O)cc1 | 1.0
* CCCCCCCCCCCO | 0.0
* CCN(CC)C(=O)c1cc(S(=O)(=O)Cc2ccccc2)c(N2CCC(c3ccccc3)CC2)cc1N(CC)CCN(C)C | 1.0
* CC1(C)NC(=O)N(c2ccc([N+](=O)[O-])c(C(F)(F)F)c2)C1=O | 1.0
* CCCCCCCCOc1ccc(C(=O)c2ccccc2)c(O)c1 | 0.0
* CCCCCCCCCC(=O)O | 0.0
* Oc1ccc2ccccc2c1 | 0.0
* O=C1CCC(C2CCCCC2)CC1 | 0.0
* CC(C)(O)c1ccc(CNC(=O)c2cccnc2Oc2ccc3nonc3c2)cc1 | 0.0
* CCCCCCCCCCCCO | 0.0
* O=C(Nc1ccc(Cl)cc1)Nc1ccc(Cl)c(Cl)c1 | 1.0
* CN(C)C(=O)C1(N2CCCCC2)CCN(CC[C@@]2(c3ccc(Cl)c(Cl)c3)CN(C(=O)c3ccccc3)CCO2)CC1 | 1.0
* O=C(OCCCCCCOC(=O)c1ccccc1)c1ccccc1 | 0.0
* COc1ccc2cc(S(=O)(=O)N[C@H](CC(=O)N[C@H](Cc3ccc(CN4[C@H](C)CCC[C@@H]4C)cc3)C(=O)N(C)C(C)C)c3ccc4c(c3)OCO4)ccc2c1 | 1.0
* CCCCOC(=O)CC(CC(=O)OCCCC)(OC(C)=O)C(=O)OCCCC | 0.0
* CC(C)(c1cc(Br)c(O)c(Br)c1)c1cc(Br)c(O)c(Br)c1 | 0.0
* CO[C@H]1/C=C/O[C@@]2(C)Oc3c(C)c(O)c4c(O)c(c(/C=N/N5CCN(C)CC5)c(O)c4c3C2=O)NC(=O)/C(C)=C\C=C\[C@H](C)[C@H](O)[C@@H](C)[C@@H](O)[C@@H](C)[C@H](OC(C)=O)[C@@H]1C | 0.0
* O=C=NCCCCCCN=C=O | 0.0
* COCC(C)OCC(C)OCC(C)O (stereo not drawn) | 0.0
* CCCCCCCCOC(=O)c1cc(O)c(O)c(O)c1 | 0.0
* CC(C)(C)c1csc(-c2cc3cc(OCc4ccccc4CC(=O)O)ccc3o2)n1 | 1.0
* O=CCCCC=O | 0.0
* CCO[Si](CCCNC(N)=O)(OCC)OCC | 0.0
* c1ccc(C[n+]2cccc3ccccc32)cc1 | 1.0
* O=C(O)Cc1cc(I)c(Oc2ccc(O)c(I)c2)c(I)c1 | 1.0
* OCCO | 0.0
* Cc1oc2c(NC(=O)c3c(Cl)cccc3Cl)cccc2c1C(C)(C)O | 1.0
* O=C(O)c1ccccc1C(=O)OCc1ccccc1 | 0.0
* CCCCCCCCN(C)CCCCCCCC | 0.0
* CN1C(=O)N(c2ccccc2Br)Cc2cnc(Nc3ccc4c(c3)OCC(CO)O4)nc21 (stereo not drawn) | 1.0
* Oc1ccccc1 | 0.0
* NC(=O)c1nc(-c2cccc(-c3cc(F)ccc3OCC(F)(F)C(F)(F)F)c2)n[nH]1 | 0.0
* c1ccc2n[nH]nc2c1 | 0.0
* C[C@]12CC[C@@H]3c4ccc(O)cc4CC[C@H]3[C@@H]1CC[C@H]2O | 0.0
* CCN(Cc1cccc(S(=O)(=O)O)c1)c1ccc(C(=C2C=CC(=[N+](CC)Cc3cccc(S(=O)(=O)O)c3)C=C2)c2ccccc2S(=O)(=O)[O-])cc1 | 0.0
* Cc1cccc2ccccc12 | 0.0
* C[C@]12CC[C@@H]3c4ccc(O)cc4CC[C@H]3[C@@H]1CCC2=O | 1.0
* O=C(O)c1ccccc1-n1cc(C(=O)O)c(=O)c2cc(Nc3c(F)cc(F)cc3Cl)c(Cl)cc21 | 0.0
* Cc1cn([C@H]2C[C@H](N=[N+]=[N-])[C@@H](CO)O2)c(=O)[nH]c1=O | 0.0
* CCN(Cc1cccnc1)C(=O)c1cccc(Cl)c1[C@]1(C)C(=O)N(Cc2ccc(OC)cc2OC)c2ccc(Cl)cc21 | 1.0
